Experiment: Biodisposition of JV-DE1 and JV-MD2 delivered via NIODP (periorbital skin) in non-human primates
Type: in vivo, cynomolgus monkeys
Conditions: cynomolgus, cynomolgus monkey, vitreous humor, topical, 6775 µg per eye; JV-MD2; monkey; NIODP 6775 µg/eye; 24 h post-dose; read-out: concentration in vitreous humor
Protocol: All experiments were performed at Medicilon. […] A pen brush was used to dose each formulation with three to four circular motions for even distribution. The doses of the test articles were selected based on their solubility/concentration with the maximum deliverable volume on the periorbital skin of the animals. The administered dose was calculated by the weight difference of the pen brush before and after administration. […]
measurementKind: concentration at 24 h (ng/mL)

compound="CC/C=C\\C/C=C\\C/C=C\\C/C=C\\C/C=C\\C/C=C\\CCC(=O)O [JV-MD2, cis-4,7,10,13,16,19-docosahexaenoic acid]" measurementkind="concentration at 24 h" measureunit=ng/mL quantitativeresult=2000

* * *

assay: Biodisposition of JV-DE1 and JV-MD2 delivered via NIODP (periorbital skin) in non-human primates; type: in vivo, cynomolgus monkeys; conditions: cynomolgus, cynomolgus monkey, plasma, topical; JV-MD2 21.5% w/w; monkey; NIODP periorbital skin OS; 6768 μg/eye; 3 h; pre-dose baseline 2; read-out: Drug in plasma
measurementKind: concentration at 3 h (ng/mL)

compound="CC/C=C\\C/C=C\\C/C=C\\C/C=C\\C/C=C\\C/C=C\\CCC(=O)O [JV-MD2, cis-4,7,10,13,16,19-docosahexaenoic acid]" measureunit=ng/mL quantitativeresult=3000

* * *

test: Biodisposition of JV-DE1 and JV-MD2 delivered via NIODP (periorbital skin) in non-human primates; type: in vivo, cynomolgus monkeys; settings: cynomolgus, cynomolgus monkey, retina, topical; JV-DE1; monkey; NIODP OD; 160.6 μg/eye; 3 h; read-out: Drug in OD Tissues, Retina
measurementKind: concentration at 3 h (ng/g)

givensmiles=CC(C)Oc1ccc(Cc2ccc(NC3=NCCN3)cc2)cc1 measurementkind="concentration at 3 h" quantitativeresult=27.9

These data points were gathered from paper PMC10535219.
